These measurements were taken from ChEMBL document CHEMBL1155393.

# tgt: Glycogen synthase kinase-3 beta (Homo sapiens, UniProt P49841)
# Sequence (P49841 whole entry): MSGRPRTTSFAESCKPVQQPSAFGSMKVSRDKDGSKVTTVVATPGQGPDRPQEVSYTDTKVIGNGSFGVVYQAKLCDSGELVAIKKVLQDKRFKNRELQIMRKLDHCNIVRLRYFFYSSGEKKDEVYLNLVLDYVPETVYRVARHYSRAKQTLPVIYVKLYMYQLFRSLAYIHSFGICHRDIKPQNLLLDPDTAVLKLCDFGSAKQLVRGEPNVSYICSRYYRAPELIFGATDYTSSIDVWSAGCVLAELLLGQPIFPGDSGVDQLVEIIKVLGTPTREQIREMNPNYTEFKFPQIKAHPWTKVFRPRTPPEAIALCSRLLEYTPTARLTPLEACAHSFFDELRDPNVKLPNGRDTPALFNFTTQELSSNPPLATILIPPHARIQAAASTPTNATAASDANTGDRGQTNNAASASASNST
# protocol-text: Inhibition of human recombinant GSK3-beta using gamma[33P]-ATP after 30 mins by scintillation proximity assay
Parameter log10(IC50): see the listing below.
measurement-kind: log10(IC50) (log10 of the value in µM)

1. CCCC(=O)Nc1n[nH]c2cc(-c3ccccc3Cl)ccc12 0.13
2. CCCC(=O)Nc1n[nH]c2cc(Br)ccc12 -0.70
3. CCCC(=O)Nc1n[nH]c2cc(-c3ccc(SC)cc3)ccc12 0.85
4. CCCC(=O)Nc1n[nH]c2cc(-c3ccoc3)ccc12 -0.59
5. CCCC(=O)Nc1n[nH]c2cc(-c3ccccc3)ccc12 0.11
6. CCCC(=O)Nc1n[nH]c2cc(Cl)c(-c3ccc([N+](=O)[O-])cc3)cc12 -1.74
7. CCCC(=O)Nc1n[nH]c2cc(Cl)ccc12 -0.45
8. C/C=C/c1ccc2c(NC(=O)CCC)n[nH]c2c1 0.39
9. CCCC(=O)Nc1n[nH]c2cc(Cl)c(-c3ccc(CC)cc3)cc12 -1.92
10. CCCC(=O)Nc1n[nH]c2cc(-c3ccc4c(c3)COO4)ccc12 1.40
11. CCCC(=O)Nc1n[nH]c2cc(-c3ccc(OCc4ccccc4)cc3)ccc12 0.07
12. N#Cc1ccc(-c2ccc3c(NC(=O)CCC(=O)O)n[nH]c3c2)cc1 1.31
13. CCCC(=O)Nc1n[nH]c2cc(-c3ccc(O)cc3)c(-c3cccnc3)cc12 -0.83
14. CCCC(=O)Nc1n[nH]c2cc(Cl)c(-c3ccoc3)cc12 -1.96
15. CCCC(=O)Nc1n[nH]c2cc(-c3ccc(O)cc3)c(-c3ccccc3)cc12 -1.26
16. CCCC(=O)Nc1n[nH]c2cc(-c3ccc(C(C)(C)C)cc3)ccc12 0.58
17. CCCC(=O)Nc1n[nH]c2cc(Cl)c(-c3ccncc3)cc12 -1.30
18. CCCC(=O)Nc1n[nH]c2cc(-c3ccccc3)c(-c3ccccc3)cc12 0.24
19. CCCC(=O)Nc1n[nH]c2cc(-c3ccsc3)ccc12 -0.03
20. CCCC(=O)Nc1n[nH]c2cc(-c3ccc(N)nc3)ccc12 0.04
21. CCCC(=O)Nc1n[nH]c2cc(-c3ccc(O)cc3)c(-c3ccc(O)cc3)cc12 -1.25

###

# tgt: Cyclin-dependent kinase 2 (Homo sapiens, UniProt P24941)
pIC50: −log10 of the molar value.
measurement-kind: pIC50

1) CCCC(=O)Nc1n[nH]c2c(F)c(Cl)c(-c3ccccc3)cc12 5.50

###

# tgt: Aurora kinase A (Homo sapiens) (UniProt O14965)
# Sequence (O14965 whole entry, looked up): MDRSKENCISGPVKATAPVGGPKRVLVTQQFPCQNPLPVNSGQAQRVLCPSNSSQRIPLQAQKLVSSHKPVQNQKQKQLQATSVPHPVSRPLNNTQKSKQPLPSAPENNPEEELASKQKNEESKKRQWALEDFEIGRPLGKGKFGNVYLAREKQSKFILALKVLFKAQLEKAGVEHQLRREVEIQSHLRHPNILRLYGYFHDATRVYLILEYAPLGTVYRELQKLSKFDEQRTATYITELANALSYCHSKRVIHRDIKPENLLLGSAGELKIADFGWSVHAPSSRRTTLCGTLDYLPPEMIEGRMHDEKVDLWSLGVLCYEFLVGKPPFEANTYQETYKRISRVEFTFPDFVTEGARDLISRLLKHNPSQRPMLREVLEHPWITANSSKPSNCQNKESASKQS
measurement-kind: IC50

1) CCCC(=O)Nc1n[nH]c2cc(-c3ccc(O)cc3)ccc12 > 30 µM

###

# tgt: Glycogen synthase kinase-3 beta (Homo sapiens)
# protocol-text: Inhibition of human recombinant GSK3-beta using gamma[33P]-ATP after 30 mins by scintillation proximity assay
pIC50: −log10 of the molar value.
measurement-kind: pIC50

1. CCCC(=O)Nc1n[nH]c2cc(Cc3ccccc3)ccc12 5.38
2. CCCC(=O)Nc1n[nH]c2c(Cl)c(Cl)c(-c3ccccc3)cc12 7.92
3. CCCC(=O)Nc1n[nH]c2c(F)c(Cl)c(-c3ccccc3)cc12 8.22
4. CCCC(=O)Nc1n[nH]c2cc(Cl)c(-c3ccc(OCc4ccccc4)cc3)cc12 7.64
5. CCCC(=O)Nc1n[nH]c2cc(Cl)c(-c3ccccc3)cc12 8.15
6. CCCC(=O)Nc1n[nH]c2cc(-c3cc(Cl)cc(Cl)c3)ccc12 5.27
7. CCCC(=O)Nc1n[nH]c2cc(-c3ccc(N(C)C)cc3)ccc12 4.91
8. CCCC(=O)Nc1n[nH]c2cc(-c3cccc(O)c3)ccc12 7.03
9. CCCC(=O)Nc1n[nH]c2cc(Cl)c(-c3ccc(F)cc3)cc12 7.66
10. Cc1ccc(-c2ccc3c(NC(=O)CCC(=O)O)n[nH]c3c2)cc1 4.77
11. CCCC(=O)Nc1n[nH]c2cc(CCc3ccccc3)ccc12 5.07
12. CCCC(=O)Nc1n[nH]c2cc(Cl)c(-c3ccc(O)cc3)cc12 8.00
13. CCCC(=O)Nc1n[nH]c2cc(-c3ccc(O)cc3)c(-c3ccoc3)cc12 7.01
14. CCCC(=O)Nc1n[nH]c2cc(-c3ccc(O)c(O)c3)ccc12 7.57
15. CCCC(=O)Nc1n[nH]c2cc(-c3ccc(OC(F)(F)F)cc3)ccc12 5.26
16. CCCC(=O)Nc1n[nH]c2cc(-c3ccc(O)cc3)c(-c3ccc(CC)cc3)cc12 7.31
17. CCCC(=O)Nc1n[nH]c2cc(-c3ccc(F)cc3)ccc12 5.30
18. CCCC(=O)Nc1n[nH]c2cc(-c3ccc(O)cc3)ccc12 7.36
19. CCCC(=O)Nc1n[nH]c2cc(-c3ccc(C(F)(F)F)cc3)ccc12 4.98
